measurementTarget: HLA-DRB1*1101 (human)
assayOverview: competition binding
attributeMeasured: IC50 (µM)
Give bare numbers, in µM.

Given TQFVRFDSDAASQRM [peptide p7 (residues 31-45 of HLA-A2)] , respond with its IC50. 4
